Molecular target: ShHTL7 T124K (Striga hermonthica)
Sequence (A0A0M3PNA2 entry or part of it, stated change not applied): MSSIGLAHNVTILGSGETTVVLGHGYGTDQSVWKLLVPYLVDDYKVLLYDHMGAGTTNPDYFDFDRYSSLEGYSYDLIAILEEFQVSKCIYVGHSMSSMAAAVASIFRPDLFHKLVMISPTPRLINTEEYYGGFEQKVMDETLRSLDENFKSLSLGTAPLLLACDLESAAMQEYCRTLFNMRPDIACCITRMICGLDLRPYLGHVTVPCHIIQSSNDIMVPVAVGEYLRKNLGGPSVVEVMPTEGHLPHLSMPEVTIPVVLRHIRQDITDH
Test: YLG competitive inhibition, ShHTL7 mutant T124K
Conditions: read-out: IC50 (YLG), ShHTL7 mutant, source data average, Supplementary Fig. 20b
propertyName: pIC50
Interpret pIC50 as the negative base-10 log of the concentration measured in mol/L.

* CC1=C[C@@H](OC(=O)N2CCN(C(=O)COc3ccc(Br)cc3C)CC2)OC1=O [(R)-4a] | 6.00

Okay, next one:
State the recorded pIC50 for this entry: CC1=C[C@H](OC(=O)N2CCN(C(=O)COc3ccc(Br)cc3C)CC2)OC1=O [(S)-4a]
6.36

---

Let's look at some compounds and their measured IC50.
Tested on: ShHTLs (10 HTL proteins in S. hermonthica)
Experiment: YLG-based competition assay on HTL proteins of S. hermonthica
Format: biochemical, Striga hermonthica
Details: ShHTL9; average of 3 replicates; Supplementary Fig. 27; read-out: IC50, average
Source text: In P. aegyptiaca, 5 KAI2s have been proposed as the SL receptors for the regulation of seed germination. […] The high sequence similarity may explain the consistency of these compounds in inducing germination in both S. hermonthica and P. aegyptiaca. The excitation and emission wavelengths of YLG are 480 and 520 nm, respectively. We used a fluorescence spectrophotometer (CARY Eclipse) to detect the fluorescence intensity change of YLG during the enzymatic hydrolysis assay process. […]

• CC1=CC(OC(=O)N2CCN(C(=O)COc3ccc(Br)cc3C)CC2)CC1=O (stereo not shown) = 38.7 µM
• CC1=C[C@H](O/C=C2/C(=O)O[C@@H]3c4ccccc4C[C@H]23)OC1=O (racemic) [rac-GR24, reference compound] = 4.71 µM
• CC1=C[C@H](OC(=O)N2CCN(C(=O)COc3ccc(Br)cc3C)CC2)OC1=O [(S)-4a] = 15.4 µM

Give the measured IC50 of CC1=CC(OC(=O)N2CCN(C(=O)COc3ccc(Br)cc3C)CC2)OC1=O (stereo not shown) .
22.9 µM

---

Biological target: ShHTL7 (Striga hermonthica)
Sequence (A0A0M3PNA2 entry or part of it): as the sequence (A0A0M3PNA2 entry or part of it, stated change not applied) above
Test: Competitive inhibition of ShHTL7 with Yoshimulactone Green (YLG) as substrate
Format: biochemical
Conditions: ShHTL7; average of 3 replicates; Supplementary Fig. 27; read-out: IC50, average
propertyName: IC50 (nM)
Use nM as the unit, but write only the number.

Completed entries (count: 2):
* CC1=C[C@H](OC(=O)N2CCN(C(=O)COc3ccc(Br)cc3C)CC2)OC1=O [(S)-4a] | 938
* CC1=C[C@@H](OC(=O)N2CCN(C(=O)COc3ccc(Br)cc3C)CC2)OC1=O [(R)-4a] | 35800

Now for a further compound.
Tell me the measured IC50 of CC1=C[C@H](O/C=C2/C(=O)O[C@@H]3c4ccccc4C[C@H]23)OC1=O (racemic) [rac-GR24, reference compound] , please.
696

---

Biological target: ShHTL7 (Striga hermonthica)
Assay: biochemical
Type: binding
Settings: recombinant ShHTL7 immobilized on CM5 chip, 25 °C; read-out: KD (SPR)
This listing pairs compounds with measured Kd.

Past entries and their recorded results:
- O=C(c1ccco1)N1CCN(CC2CC3C=CC2C3)CC1 (stereo not shown): 12.8 µM
- CC1=C[C@H](O/C=C2/C(=O)O[C@@H]3c4ccccc4C[C@H]23)OC1=O (racemic) [rac-GR24, reference compound]: ~0.93 µM
- Cc1cc(Cl)ccc1OCC(=O)N1CCN(CC2CC3C=CC2C3)CC1 (stereo not shown): 0.65 µM

Now turn to the next compound.
Look up Kd: Cc1cc(F)ccc1OCC(=O)N1CCN(CC2CC3C=CC2C3)CC1 (stereo not shown)
1.86 µM
